Ref: paper PMC11391341

Target: urease expressed in whole cell Proteus mirabilis (Proteus mirabilis)
Construct: Urease in P. mirabilis is intracellular; endogenous in cells; host or cells: Proteus mirabilis B4 (Jenkins Group collection, University of Bath), whole cells
Sequence (P17086 whole entry): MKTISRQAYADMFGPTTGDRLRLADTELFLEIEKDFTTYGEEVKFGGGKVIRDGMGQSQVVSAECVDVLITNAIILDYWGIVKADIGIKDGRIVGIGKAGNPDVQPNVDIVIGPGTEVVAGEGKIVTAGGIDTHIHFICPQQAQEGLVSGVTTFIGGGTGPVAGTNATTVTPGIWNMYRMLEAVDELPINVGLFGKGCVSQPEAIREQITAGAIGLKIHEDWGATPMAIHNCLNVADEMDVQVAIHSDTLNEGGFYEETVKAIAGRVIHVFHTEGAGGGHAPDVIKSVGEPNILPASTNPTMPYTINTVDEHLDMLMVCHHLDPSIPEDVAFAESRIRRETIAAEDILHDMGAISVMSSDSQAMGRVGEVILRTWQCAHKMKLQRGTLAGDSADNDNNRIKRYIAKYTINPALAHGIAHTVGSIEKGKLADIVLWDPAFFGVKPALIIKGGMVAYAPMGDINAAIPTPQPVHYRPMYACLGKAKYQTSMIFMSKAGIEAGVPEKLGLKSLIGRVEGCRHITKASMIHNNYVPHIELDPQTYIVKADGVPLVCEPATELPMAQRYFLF
Assay: Urease activity assay (Berthelot), whole-cell P. mirabilis
Assay type: cell-based
Details: % urease activity; Proteus mirabilis whole cell; Supplementary Table 3
measured-parameter: A2 (dose-response fit parameter) (%)
Field format: number, assumed %, no unit text.

Worked examples follow.
compound: S=C(NCc1cccnc1)NCc1cccnc1
study-system: urease expressed in whole cell Proteus mirabilis (Proteus mirabilis)
A2 (dose-response fit parameter), %: 85.9

compound: O=c1c(O)c(-c2ccc(O)c(O)c2)oc2cc(O)cc(O)c12 [Quercetin, quercetin, reference compound]
study-system: urease expressed in whole cell Proteus mirabilis (Proteus mirabilis)
A2 (dose-response fit parameter), %: 68.53

compound: NC(=S)Nc1ccccc1
study-system: urease expressed in whole cell Proteus mirabilis (Proteus mirabilis)
A2 (dose-response fit parameter), %: 141.8

Task: Please give the measured A2 (dose-response fit parameter) for this compound: "NC(=S)NCc1ccccc1"
Result: 78.71

###

Property: pIC50; scope: individual compounds
Biological target: urease expressed in whole cell Proteus mirabilis (Proteus mirabilis)
Construct: Urease in P. mirabilis is intracellular; endogenous in cells; host or cells: Proteus mirabilis B4 (Jenkins Group collection, University of Bath), whole cells
Test: Urease activity assay (Berthelot), whole-cell P. mirabilis
Format: cell-based
Just so you know, pIC50 here is -log10 of the concentration in molar units; reply with that number alone.

Worked examples follow.
compound: O=c1c(O)c(-c2ccc(O)c(O)c2)oc2cc(O)cc(O)c12 [Quercetin, quercetin, reference compound]
pIC50: 6.06

compound: NC(=S)NCc1ccccc1
pIC50: 4.64

compound: NC(=S)Nc1ccccc1
pIC50: 5.02

Task: Please state recorded pIC50 (tested on urease expressed in whole cell Proteus mirabilis (Proteus mirabilis)) of "S=C(NCc1cccnc1)NCc1cccnc1"
Result: 5.85

###

Target: urease expressed in whole cell Proteus mirabilis (Proteus mirabilis)
Construct: Urease in P. mirabilis is intracellular; endogenous in cells; host or cells: Proteus mirabilis B4 (Jenkins Group collection, University of Bath), whole cells
Assay: Urease activity assay (Berthelot), whole-cell P. mirabilis
Assay type: cell-based
Conditions: % urease activity; Proteus mirabilis whole cell; Supplementary Table 3
Property: A1 (dose-response fit parameter); scope: individual compounds
In your response, the unit should come after the numeric value.

Task: Please give the measured A1 (dose-response fit parameter) for this compound: NC(=S)NCc1ccccc1 [Compound A6, benzylthiourea]
Result: 5.57%

Task: Please give the measured A1 (dose-response fit parameter) for this compound: O=c1c(O)c(-c2ccc(O)c(O)c2)oc2cc(O)cc(O)c12 [Quercetin, quercetin, reference compound]
Result: -6.874%

Task: Please give the measured A1 (dose-response fit parameter) for this compound: S=C(NCc1cccnc1)NCc1cccnc1 [Compound A11, N,N′-bis(3-pyridinylmethyl)thiourea]
Result: -6.896%

Task: Please give the measured A1 (dose-response fit parameter) for this compound: NC(=S)Nc1ccccc1 [Compound A5, N-phenylthiourea]
Result: -2834%
